Biological target: Estrogen receptor beta (Homo sapiens) (UniProt Q92731)
Sequence (Q92731 whole entry, looked up): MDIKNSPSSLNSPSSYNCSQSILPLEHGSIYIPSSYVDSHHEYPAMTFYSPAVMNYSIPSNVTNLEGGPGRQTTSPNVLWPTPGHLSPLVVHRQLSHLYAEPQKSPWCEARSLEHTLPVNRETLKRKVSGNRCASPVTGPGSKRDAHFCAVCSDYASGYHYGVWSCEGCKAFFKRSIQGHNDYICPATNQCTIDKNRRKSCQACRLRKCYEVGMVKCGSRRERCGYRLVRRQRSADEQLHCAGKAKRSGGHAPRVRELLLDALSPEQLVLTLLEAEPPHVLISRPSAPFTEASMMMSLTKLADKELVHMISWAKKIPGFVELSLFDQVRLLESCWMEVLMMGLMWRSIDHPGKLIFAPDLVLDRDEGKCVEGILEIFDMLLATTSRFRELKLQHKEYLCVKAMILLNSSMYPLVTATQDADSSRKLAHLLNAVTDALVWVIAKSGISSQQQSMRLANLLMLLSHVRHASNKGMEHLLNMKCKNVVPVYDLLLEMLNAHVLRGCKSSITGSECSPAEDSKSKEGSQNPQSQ
Assay: ATG_hERb_XSP1: Attagene TRANS-FACTORIAL Multi-Species (XSP1) HepG2 Assay for human Estrogen Receptor (ESR2) (AID 2283788)
Inconclusive results are not listed. Activity calls are given as the source filed them. Rule for the calls: active = hit-call score of the fitted dose curve at least 0.9, where 1 is the maximum; inconclusive = response in the unintended direction; inactive = score below 0.9.
PROPERTY_MEASURED: AC50

Reference set, count: 6
COMPOUND	AC50
CC(C)Oc1cc(-n2nc(C(C)(C)C)oc2=O)c(Cl)cc1Cl	100 µM (active)
COP(=S)(OC)Oc1nc(Cl)c(Cl)cc1Cl	27.1 µM (active)
CC(C)(C)c1ccc(CSc2cnn(C(C)(C)C)c(=O)c2Cl)cc1	inactive
CO/C=C(/C(=O)OC)c1ccccc1Oc1cc(Oc2ccccc2C#N)ncn1	inactive
C=CC1(C)OC(=O)N(c2cc(Cl)cc(Cl)c2)C1=O (configuration not stated)	inactive
CCCN(CCC)c1c([N+](=O)[O-])cc(S(N)(=O)=O)cc1[N+](=O)[O-]	14.8 µM (active)

Please examine the following record next.
API: value(readout=AC50, system=Estrogen receptor beta (Homo sapiens) (UniProt Q92731)) for record COc1ccc(C(c2ccc(OC)cc2)C(Cl)(Cl)Cl)cc1
inactive

---

Assay: CCTE_Mundy_HCI_Cortical_NOG_BPCount: CCTE's Neurite Outgrowth Assay in rat cortical cells for Branch Point Count, Mundy Lab (AID 2284237)
The source made the active and inactive calls. How the source made its calls: active means hit-call score of the fitted dose curve at least 0.9, where 1 is the maximum; inactive means score below 0.9.
The categories you may choose from are y for active, n for inactive

Sample answers from the record:
COMPOUND	CAT
Cc1ccc(-c2c(Cl)nc(C#N)n2S(=O)(=O)N(C)C)cc1	y
CN(C)C(=S)SSC(=S)N(C)C	y
COC(=O)N(OC)c1ccccc1COc1ccn(-c2ccc(Cl)cc2)n1	y
COP(=S)(OC)Oc1nc(Cl)c(Cl)cc1Cl	y
COP(N)(=O)SC (stereo not drawn)	n

Each compound tested received a call. Report the one for CC(C)(C)c1ccc(CSc2cnn(C(C)(C)C)c(=O)c2Cl)cc1 .
y

Proceed to CCCCOC(=O)c1ccccc1C(=O)OCCCC
n

Proceed to C=CCC1=C(C)[C@@H](OC(=O)[C@@H]2[C@@H](C=C(C)C)C2(C)C)CC1=O
n

---

Read-out: Alpha-fetoprotein (AFP) gene, AFP (gene 174)
Assay: LTEA_HepaRG_AFP: Life Technologies and Expression Analysis (LTEA) Assay for Alpha-fetoprotein (AFP) gene using HepaRG (AID 2283472)
Conditions: mRNA level, 48 h; actives raise or lower the signal
Activity calls are given as the source filed them. Rule for the calls: active = hit-call score of the fitted dose curve at least 0.9, where 1 is the maximum; inactive = score below 0.9.
The categories you may choose from are active, inactive

Sample answers from the record:
MOLECULE	CAT
N#Cc1cc(Br)c(O)c(Br)c1	active
CC1COC(Cn2cncn2)(c2ccc(Oc3ccc(Cl)cc3)cc2Cl)O1 (configuration not stated)	active
CC(C)(C)c1ccc(CSc2cnn(C(C)(C)C)c(=O)c2Cl)cc1	active
Fc1ccc(Oc2ccnc3cc(Cl)cc(Cl)c23)cc1	active
O=C(O)COc1nc(Cl)c(Cl)cc1Cl	inactive
CNC(=O)ON=CC(C)(C)SC	inactive

Each molecule tested received a call. Report the one for CS/C(C)=N/OC(=O)N(C)SN(C)C(=O)O/N=C(\C)SC .
inactive

Proceed to O=C(Nc1ccccc1)Nc1ccnc(Cl)c1
active

Proceed to C=CC1(C)OC(=O)N(c2cc(Cl)cc(Cl)c2)C1=O (configuration not stated)
inactive

Proceed to C#CCOS(=O)OC1CCCCC1Oc1ccc(C(C)(C)C)cc1 (configuration not stated)
active

Proceed to O=C(O)c1nc(Cl)ccc1Cl
inactive

Proceed to CCOC(=O)C(Cl)Cc1cc(-n2nc(C)n(C(F)F)c2=O)c(F)cc1Cl (configuration not stated)
inactive
